Source: PubChem BioAssay (NCI)

System: SR leukemia
TEST DETAILS: NCI tumour cell line growth inhibition, 48 h
Items are presented alongside their recorded TGI.

{"COMPOUND": "COc1cc2c(cc1OC)C1Cc3sccc3CN1CC2 (stereo unspecified)", "TGI": "> 100 µM"}
{"COMPOUND": "O=C(O)c1cc2ccccc2c(N=Nc2ccc(S(=O)(=O)O)cc2)c1O", "TGI": "> 100 µM"}
{"COMPOUND": "Cc1ccc(-c2c(C#N)[n+](=O)c3cc(Cl)c(Cl)cc3n2[O-])cc1", "TGI": "> 100 µM"}
{"COMPOUND": "CCOc1nc(OCC)nc(-c2cccn2-c2ccccc2)n1", "TGI": "99.7 µM"}
{"COMPOUND": "CCCCNCC(O)c1cc2c(Cl)cc(Cl)cc2c2cc(C(F)(F)F)ccc12 (stereo unspecified)", "TGI": "3.93 µM"}
{"COMPOUND": "Cc1ccc(/C=N/Nc2ccccn2)s1", "TGI": "> 100 µM"}
